Ref: the supplement of paper PMC7724964

- Tested System: T1, NFKBIA 70-282 EF-hand_6 (domain begin residue: 70, domain end residue: 282), P25963
- T1 chain: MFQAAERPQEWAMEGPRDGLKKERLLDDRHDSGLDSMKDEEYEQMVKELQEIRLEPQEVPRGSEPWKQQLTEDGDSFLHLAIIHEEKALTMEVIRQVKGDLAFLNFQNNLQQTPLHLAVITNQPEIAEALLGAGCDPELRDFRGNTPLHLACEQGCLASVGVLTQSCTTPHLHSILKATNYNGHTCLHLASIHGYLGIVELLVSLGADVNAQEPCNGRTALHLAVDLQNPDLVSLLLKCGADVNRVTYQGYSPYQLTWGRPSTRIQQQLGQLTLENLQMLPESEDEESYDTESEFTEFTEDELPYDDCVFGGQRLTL
- Assay Protocol: phage ELISA signal ratio (GST-PRM binding over GST background); higher = stronger binding of peptide-phage to the PRM
Property Measured: phage ELISA signal ratio
API note: the answer field is a bare number with no unit suffix.

For this binder ( EWFTDHNGADVWLELP ), measured phage ELISA signal ratio is 4.99

For this binder ( YMVEEHYYDLMQMLGS ), measured phage ELISA signal ratio is 11

For this binder ( MYRAPDAYDDHQVYVS ), measured phage ELISA signal ratio is 7.46

For this binder ( QPLPPPPPPSSIPAPA ), measured phage ELISA signal ratio is 5.2
